Molecular target: Transforming acidic coiled-coil-containing protein 3 (Homo sapiens) (UniProt Q9Y6A5)
Test: inhibition of ARNT PAS-B/TACC3 complex formation – biochemical, AlphaScreen, cherry-picked samples, confirmation (AID 651703);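 also: TACC3 partner is the GST-tagged E629A mutant dimer; hits lower the signal meaning they disrupt ARNT binding to TACC3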
Conditions: AlphaScreen His-ARNT PAS-B / GST-TACC3 binding, luminescence
A collection of compounds and their measured AC50
property measured: AC50

                                    compound  property_measured    result
 0  Cc1cccc(NC(=O)CCC(=O)N/N=C/c2ccc(O)cc2O)c1               AC50   22.4 µM
 1     NC(=O)CSc1nnc(-c2ccc(O)cc2)n1Cc1ccco1               AC50   40.8 µM
 2    c1ccc(CCNc2nc(-c3ccccn3)nc3ccccc23)cc1               AC50   20.1 µM
 3  O=C(Nc1nc(-c2ccccn2)cs1)c1cc(Cl)ccc1[N+](=O)[O-]               AC50   3.07 µM
 4  CO[C@@H]1CN(C)C(=O)c2cc(NS(=O)(=O)CC(F)(F)F)ccc2OC[C@@H](C)N(C(=O)c2ccc3c(c2)OCO3)C[C@@H]1C               AC50     58 µM
 5  O=C(CCS(=O)(=O)c1ccccc1)Nc1nc(-c2ccccn2)cs1               AC50   11.2 µM
 6  COc1ccc(NC(=O)N[C@@H]2CC[C@@H](CCn3cc(-c4ccccn4)nn3)O[C@H]2CO)cc1               AC50   28.6 µM
 7        O=C(Nc1nnc(-c2ccc(F)cc2)o1)c1ccco1               AC50     37 µM
 8      CSCc1cc(N(C)c2ccccc2)nc(-c2ccccn2)n1               AC50   5.86 µM
 9  O=C(CSc1ccc2nnc(-c3ccccn3)n2n1)NCc1ccco1               AC50   9.49 µM
10          c1ccc(-c2n[nH]c(-c3ccccn3)n2)cc1               AC50   11.6 µM
11        Cc1c(Cl)cccc1-c1ccc(CNCc2ccccn2)o1               AC50   35.2 µM
12  COC(=O)c1ccc(NC(=O)CSc2ccc(-c3ccccn3)nn2)cc1               AC50   2.57 µM
13  Cc1c(C(=O)N(C)C)sc2nc(-c3ccccn3)[nH]c(=O)c12               AC50   2.78 µM
14  C[C@H]1c2cccc(O)c2C(O)=C2C(=O)[C@]3(O)C(O)=C(C(N)=O)C(=O)[C@@H](N(C)C)C3[C@@H](O)C21 (stereo partly drawn)               AC50   33.5 µM
15  COC(=O)Cc1cc(=O)n(-c2nc3ccccc3[nH]2)[nH]1               AC50   2.68 µM
16    COc1ccccc1CNC(=O)CSc1ccc(-c2ccccn2)nn1               AC50   9.48 µM
17  O=S(=O)(N[C@H]1CC[C@@H](CCn2cc(-c3ccccn3)nn2)O[C@@H]1CO)c1cccc(F)c1               AC50   10.9 µM
18  O=C(CSc1ccc(-c2ccccn2)nn1)N1CCCc2ccccc21               AC50   5.32 µM
19  C[C@@H]1CN([C@H](C)CO)C(=O)c2cc(NC(=O)Nc3ccc(C(F)(F)F)cc3)ccc2O[C@@H](C)CCCCO[C@H]1CN(C)Cc1ccc2c(c1)OCO2               AC50   64.9 µM
20           Cc1ccc(/C=N/Nc2cn[nH]c(=O)n2)o1               AC50   26.3 µM
21  Oc1ccc(CN2CCC3CCCCC3C2)c2cccnc12 (stereo not drawn)               AC50   1.22 µM
22      COc1ccc(C(=O)Nc2nnc(C3=COCCO3)o2)cc1               AC50   24.9 µM
23                CN(C)C(=O)CSc1cccc2cccnc12               AC50   4.27 µM
24  O=C(Nc1nc(-c2ccccn2)cs1)c1cc(S(=O)(=O)N2CCOCC2)ccc1F               AC50   4.43 µM
25    CCOc1cc2c(C#N)c(N3CCOCC3)nc(N)c2c(N)n1               AC50   30.4 µM
26  O=C(O)CCNc1cc(N2CCN(C(=O)c3ccco3)CC2)c2noc3c2c1C(=O)c1ccccc1-3               AC50   14.9 µM
27   O=C(N/N=C/c1sc2ccccc2c1O)c1cccc2ccccc12               AC50     23 µM
28        Cc1cccc(OCc2nc(-c3ccccn3)n[nH]2)c1               AC50   5.94 µM
29               COc1ccc2ccccc2c1CNCc1ccccn1               AC50   24.8 µM
30         O=C(CSc1nnc(-c2cccnc2)o1)Nc1nccs1               AC50   17.7 µM
31  NC(CO)C(=O)NNCc1ccc(O)c(O)c1O (stereo not drawn)               AC50   13.3 µM
32  COc1cccc(CNc2nc(-c3ccccn3)nnc2-c2ccccc2)c1               AC50  0.794 µM
33              CNc1nc(C(=O)O)nc(N2CCOCC2)n1               AC50   11.6 µM
34  COc1cccc(CNC(=O)CSc2ccc(-c3ccccn3)nn2)c1               AC50   4.03 µM
35              CNc1ccc2nc3ccccc3[n+](C)c2c1               AC50   29.9 µM
36          Cc1oc(C(=O)O)cc1COc1cccc2cccnc12               AC50   36.6 µM
37  O=C(NC[C@@H]1[C@H](c2ccccc2)[C@H](CO)N1Cc1ccccn1)C1CC1               AC50   59.6 µM
38     CC(C)(C)c1ccc(OCCNC(=O)c2ncn[nH]2)cc1               AC50   15.8 µM
39  O=S(=O)(c1ccccc1)N1C[C@@H]2[C@H](c3ccccc31)[C@H](CO)N2Cc1ccccn1               AC50   61.5 µM
40  O=C(N[C@H]1CC[C@@H](CCn2cc(-c3ccccn3)nn2)O[C@H]1CO)c1cccnc1               AC50   8.65 µM
41   COc1ccc(NC(=O)CSc2nnc(-c3ccccn3)n2N)cc1               AC50   13.2 µM
42  O=S(=O)(N[C@H]1CC[C@H](CCn2cc(-c3ccccn3)nn2)O[C@@H]1CO)c1cccc(Cl)c1               AC50   19.2 µM
